- measurementTarget: human T877A mutant AR (Homo sapiens, UniProt P10275, T878A)
- Sequence (P10275 1-920 T878A): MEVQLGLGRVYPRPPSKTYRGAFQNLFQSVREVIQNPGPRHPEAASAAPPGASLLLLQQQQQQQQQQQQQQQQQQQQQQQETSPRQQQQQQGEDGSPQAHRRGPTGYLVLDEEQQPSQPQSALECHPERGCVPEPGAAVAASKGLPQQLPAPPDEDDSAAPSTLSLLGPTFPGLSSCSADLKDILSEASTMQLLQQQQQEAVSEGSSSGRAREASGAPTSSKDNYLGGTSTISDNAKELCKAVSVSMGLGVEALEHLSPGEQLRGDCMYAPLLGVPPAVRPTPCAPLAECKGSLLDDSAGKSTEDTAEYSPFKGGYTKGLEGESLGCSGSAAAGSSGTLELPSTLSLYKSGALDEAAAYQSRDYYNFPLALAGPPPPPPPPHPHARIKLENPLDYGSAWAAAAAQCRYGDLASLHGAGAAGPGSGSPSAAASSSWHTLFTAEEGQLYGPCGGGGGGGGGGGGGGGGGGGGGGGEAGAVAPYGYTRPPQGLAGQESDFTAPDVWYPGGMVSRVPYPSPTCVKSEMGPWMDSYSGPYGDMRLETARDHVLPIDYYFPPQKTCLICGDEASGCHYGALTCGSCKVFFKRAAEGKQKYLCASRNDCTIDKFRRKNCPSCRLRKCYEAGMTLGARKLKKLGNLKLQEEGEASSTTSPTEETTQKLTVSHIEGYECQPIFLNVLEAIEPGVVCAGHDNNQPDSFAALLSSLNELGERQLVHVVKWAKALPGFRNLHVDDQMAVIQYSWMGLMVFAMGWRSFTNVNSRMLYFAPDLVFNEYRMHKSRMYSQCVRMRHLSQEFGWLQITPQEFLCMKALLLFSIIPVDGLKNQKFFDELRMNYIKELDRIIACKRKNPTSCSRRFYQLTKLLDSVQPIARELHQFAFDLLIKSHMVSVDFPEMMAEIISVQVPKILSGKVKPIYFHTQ
- runDescription: Inhibitory action against transcriptional activation of mutant AR (luciferase reporter, CHO-K1 cells, DHT 0.3 nM)
- cond: CHO-K1 cells stably expressing T877A mutant AR, with DHT 0.3 nM, >1000 nM means no inhibitory action observed, read-out: IC50, inhibition of transcriptional activation, T877A
Would you kindly list pIC50 for each of these compounds?
Numbers only, as −log10 of the molar value.

Return reported pIC50 values for all items listed beneath this line.
1. COc1cc(NC(=O)N2C[C@H](C)N(c3ccc(C#N)c(Cl)c3)C[C@H]2C)cc(C)n1 [Ex 18]
2. COc1cc(NC(=O)N2C[C@H](C)N(c3ccc(C#N)c(Br)c3)C[C@H]2C)cc(C)n1 [Ex 19]
3. COc1cc(N2C[C@@H](C)N(C(=O)Nc3nc(C)cc(O)n3)C[C@@H]2C)ccc1C#N [Ref 1-2, reference compound]
4. Cc1cc(NC(=O)N2C[C@H](C)N(c3ccc(C#N)c(Cl)c3)C[C@H]2C)cc(Cl)n1 [Ex 16]

1. 7.82
2. 7.72
3. 7.05
4. 7.62
